Measured values drawn from PubChem BioAssay AID841 for this set.

assay: blockers of measles virus-induced cell death – single point, MLSMR library, absorbance, measles RdRp inhibitor project, primary screen (AID 841); details: Measles virus-infected cells, CPE protection, at 4 µM, stronger effect = higher value
Out of some 140,000 compounds screened, about 2,100 (1.5%) were called active. What follows is part of a selection rich in actives, with near analogues and random picks from the rest.
Reported protection (pct of control) values follow for various molecules

{"molecule": "CCCC(C)C(=O)OCC(=O)Nc1c(Br)cc(C)cc1Br (stereo not given)", "protection (pct of control), %": 5.66}
{"molecule": "O=C(COc1ccc(/C=N/NC(=O)c2ccc(O)cc2)cc1)Nc1ccc([N+](=O)[O-])cc1", "protection (pct of control), %": 40.1}
{"molecule": "COc1ccc(C2CC(c3ccccc3)=NN2C(=O)c2ccc(Cl)c([N+](=O)[O-])c2)cc1 (stereo not given)", "protection (pct of control), %": 5.64}
{"molecule": "CCC(C)(C)C1CCC(=NNC(=O)c2ccc(Br)o2)CC1 (stereo not given)", "protection (pct of control), %": 39}
{"molecule": "CCCOC(=O)c1ccc(N2C(=O)c3ccccc3C2=O)cc1", "protection (pct of control), %": 1.17}
